Taken from ChEMBL document CHEMBL1128729.

biological target: Alpha-1A adrenergic receptor (Homo sapiens, UniProt P35348)
Sequence (P35348 whole entry): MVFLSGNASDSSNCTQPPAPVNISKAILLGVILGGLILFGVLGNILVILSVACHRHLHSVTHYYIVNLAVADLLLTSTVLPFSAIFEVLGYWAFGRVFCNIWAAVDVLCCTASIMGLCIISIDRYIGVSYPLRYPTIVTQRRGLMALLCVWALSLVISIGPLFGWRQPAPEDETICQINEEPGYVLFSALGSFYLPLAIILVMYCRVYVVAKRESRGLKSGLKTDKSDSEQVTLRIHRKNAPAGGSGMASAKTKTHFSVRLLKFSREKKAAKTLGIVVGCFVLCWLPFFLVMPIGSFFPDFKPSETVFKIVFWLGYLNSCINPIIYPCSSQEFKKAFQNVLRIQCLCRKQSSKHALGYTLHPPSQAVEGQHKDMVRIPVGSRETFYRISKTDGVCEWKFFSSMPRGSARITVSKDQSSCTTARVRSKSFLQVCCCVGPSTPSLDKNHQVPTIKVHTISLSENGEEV
pKi: −log10 of the molar value.
Mark false (0) for pKi values under 7, and true (1) for everything at or above.

> print(dat)
                                   molecule      label
1           CC(C)=CCOc1ccc(Cl)c2c1CCN(C)CC2   true (1)
2  CNC(=O)C1=C(C)NC(C)=C(C(=O)NCCCN2CCC(c3ccccc3)(c3ccccc3)CC2)C1c1ccc([N+](=O)[O-])cc1 (configuration not stated)   true (1)
3                      CN1CCc2cccc(Cl)c2CC1  false (0)
4             C=Cc1sc2ccc(Cl)c3c2c1CN(C)CC3   true (1)

Request: Evaluate CN1CCc2c(Cl)ccc3oc(Br)c(c23)C1 : pKi at minimum 7?
Response: false (0)

Request: Record COC(=O)C1=C(C)NC(C)=C(C(=O)NCCCN2CCC(c3ccccc3)(c3ccccc3)CC2)C1c1cccc([N+](=O)[O-])c1 (configuration not stated) ; criterion: pKi no lower than 7. Met?
Response: true (1)

Request: Is pKi at least 7? Consider CCc1sc2ccc(Cl)c3c2c1CN(C)CC3
Response: true (1)
